Source of measurements: patent US20140005417A1

Test: Light resistance evaluation of ink image samples (exposure test)
Conditions: ink image sample with L* closest to 60; Weather-Ometer exposure 36 hours, black panel 50° C., chamber 40° C., RH 70%, 340 nm 0.39 W/m^2; less than 10 = good

MOLECULE | ΔE (36 h)
CCc1ccc(NC(C)=O)c(CC)c1N=c1ccc2c(-c3ccccc3S(=O)(=O)O)c3ccc(Nc4c(CC)ccc(NC(C)=O)c4CC)cc3oc-2c1 [(14)] | 5.2
CCCCCCCCCCCCCCCCCC(=O)Nc1c(C)cc(C)c(N=c2ccc3c(-c4ccccc4S(=O)(=O)O)c4ccc(Nc5c(C)cc(C)c(NC(=O)CCCCCCCCCCCCCCCCC)c5C)cc4oc-3c2)c1C [(23)] | 3.8
CC(=O)Nc1c(C)c(N=c2ccc3c(-c4ccccc4S(=O)(=O)O)c4ccc(Nc5c(C)c(NC(C)=O)c(C)c(NC(C)=O)c5C)cc4oc-3c2)c(C)c(NC(C)=O)c1C [(11)] | 2.3
C=C(C)C(=O)Nc1c(C)cc(C)c(N=c2ccc3c(-c4ccccc4S(=O)(=O)O)c4ccc(Nc5c(C)cc(C)c(NC(=O)C(=C)C)c5C)cc4oc-3c2)c1C [(21)] | 7.8
CCC(=O)Nc1c(C)cc(C)c(N=c2ccc3c(-c4ccccc4S(=O)(=O)O)c4ccc(Nc5c(C)cc(C)c(NC(=O)CC)c5C)cc4oc-3c2)c1C [Compound (6)] | 3.3

* * *

Experiment: Light resistance evaluation of ink image samples (exposure test)
Settings: ink image sample with L* closest to 60; Weather-Ometer exposure 36 hours, black panel 50° C., chamber 40° C., RH 70%, 340 nm 0.39 W/m^2; less than 10 = good
Entries whose ΔE (36 h) is below 5 take Condition met; entries at or above 5 take Condition not met.

SMILES_NOTATION | LABEL
Cc1cc(C)c(NC(=O)C(C)C)c(C)c1N=c1ccc2c(-c3ccccc3S(=O)(=O)O)c3ccc(Nc4c(C)cc(C)c(NC(=O)C(C)C)c4C)cc3oc-2c1 | Condition met
Cc1cc(C)c(NC(=O)c2ccccc2)c(C)c1N=c1ccc2c(-c3ccccc3S(=O)(=O)O)c3ccc(Nc4c(C)cc(C)c(NC(=O)c5ccccc5)c4C)cc3oc-2c1 | Condition met
Cc1ccc(/N=N/c2c(O)c(C(=O)O)cc3ccccc23)c(S(=O)(=O)O)c1 | Condition met
CC(=O)Nc1c(C)cc(C)c(N=c2ccc3c(-c4ccccc4S(=O)(=O)O)c4ccc(Nc5c(C)cc(C)c(NC(C)=O)c5C)cc4oc-3c2)c1C | Condition met
CCOc1cc(C)c(N=c2ccc3c(-c4ccccc4S(=O)(=O)O)c4ccc(Nc5c(C)cc(OCC)c(NC(C)=O)c5C)cc4oc-3c2)c(C)c1NC(C)=O | Condition met
CCCC(=O)Nc1c(C)cc(C)c(N=c2ccc3c(-c4ccccc4S(=O)(=O)O)c4ccc(Nc5c(C)cc(C)c(NC(=O)CCC)c5C)cc4oc-3c2)c1C | Condition met
CC(=O)Nc1c(C)cc(C)c(N=c2ccc3c(-c4ccccc4S(=O)(=O)O)c4ccc(Nc5c(C)c(NC(C)=O)c(C)c(NC(C)=O)c5C)cc4oc-3c2)c1C | Condition met
Nc1c(Oc2ccccc2)cc(O)c2c1C(=O)c1ccccc1C2=O | Condition not met
CCOC(=O)c1ccccc1C(=O)Nc1c(C)cc(C)c(N=c2ccc3c(-c4ccccc4S(=O)(=O)O)c4ccc(Nc5c(C)cc(C)c(NC(=O)c6ccccc6C(=O)OCC)c5C)cc4oc-3c2)c1C | Condition met
CCN(CC)c1ccc2c(c1)Oc1cc(N(CC)CC)ccc1C21OC(=O)c2ccccc21 | Condition not met
CC(=O)Nc1ccc(C)c(N=c2ccc3c(-c4ccccc4S(=O)(=O)O)c4ccc(Nc5c(C(C)C)ccc(NC(C)=O)c5C(C)C)cc4oc-3c2)c1C | Condition not met

* * *

Catalogue of solubility readings, one per entry.
Assay: physchem
Conditions: ethyl acetate, organic solvent or mixture, thermodynamic from solid
RESULT_TYPE: solubility

SMILES_NOTATION | OBSERVED_RESULT
CCN(CC)c1ccc2c(c1)Oc1cc(N(CC)CC)ccc1C21OC(=O)c2ccccc21 | < 42.9 mg/mL
Nc1c(Oc2ccccc2)cc(O)c2c1C(=O)c1ccccc1C2=O | < 42.9 mg/mL
Cc1ccc(/N=N/c2c(O)c(C(=O)O)cc3ccccc23)c(S(=O)(=O)O)c1 | < 42.9 mg/mL
